Data origin: the supplement of paper PMC10567573

Assay: protein stability index of a GFP-peptide fusion (GPS, HEK-293T) (PSI 1-6); higher = more stable;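 note: 24-mer peptide tiles fused after GFP, lentivirally expressed, FACS-sorted into six equal bins by GFP/DsRed ratio, decoded by Illumina sequencing, PSI is the read-weighted mean bin number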
Settings: treatment: MLN4924 1 uM, 8 h; c terminus: a fixed tail appended
measured.attribute: protein stability index

# seq, experimental.result
measured = [
    ("LDSVSPCPSSPKQIHLDVDNDRTT [DLC1]", 5.55),
    ("VLSNMEKLFCIPVHGIRSVGTAAV [IMPA1]", 2.12),
    ("IRPDPRSRVTDPVGDIVSFMHSFE [FAF2]", 3.09),
    ("MARPLVPSSQKALLLELKGLQEEP [CDC34]", 3.98),
    ("VPVRRPARRRQSAGPWPRPKGSLS [RASAL3]", 4.68),
    ("IGYVHIYLKGQREKSEKINAMLKG [GOSR1]", 2.67),
    ("RPEELLQMELLLVNKLKWNLAAMT [CCND1]", 2.52),
    ("LTKYPTDRDSIWKCLKFLGSRHPT [INTS4]", 2.39),
    ("SDCCRKLLSSGFEIDTPDKFGRTC [ANKRD44]", 2.97),
    ("ALRGAAVDEYFRQPVVDTFDIRIL [CARM1]", 2.6),
    ("SQITDSEHNSSLVSQQTGSPGKQP [ZNF8]", 5.26),
    ("HCAAVTPAGCMYIHGGVVNIHENK [KLHDC10]", 3.12),
    ("DLASAAAKQIMEETYKMEFMYSGV [INTS4]", 2.5),
]

====

Overview of reported protein stability index across a group of sequences:
Assay: protein stability index of a GFP-peptide fusion (GPS, HEK-293T) (PSI 1-6); higher = more stable
Conditions: treatment: MLN4924 1 uM, 8 h; c terminus: a fixed tail appended

# seq, protein stability index
measured = [
    ("VIDRKVYNISEFTRRHPGGSRVIS [FADS1]", 3.07),
    ("EGAQRDRFPGRKQPGVHEEPVLKK [C22orf31]", 5.17),
    ("ESSMEDCLAHLGEKVSQELKEPLH [BCL2L13]", 5.09),
    ("GVGAVPGPGTPTGPSLPSKRESPG [ZBTB22]", 5.21),
    ("QLRNCLRILMGELSNHHDHHDEFC [BEX3]", 2.21),
    ("SINVMKQLIGSSNLFVMQVEMDIY [GMCL1]", 2.82),
    ("FSEQVFKVASSDLVNMGISVVSYT [FLOT1]", 2.39),
]

====

Measured protein stability index values are reported for all entries that follow.
Test: protein stability index of a GFP-peptide fusion (GPS, HEK-293T) (PSI 1-6); higher = more stable
Conditions: treatment: MLN4924 1 uM, 8 h; c terminus: a fixed tail appended
measured.attribute: protein stability index

# seq, measured.attribute, experimental.result
records = [
    ("GHSFCRPCLCLSWEEAQSPANCPA [TRIM43]", "protein stability index", 3.66),
    ("SEEAAVLQYASLVGQKCSERMLLF [ATE1]", "protein stability index", 2.19),
    ("KHAAFVTPDQKYSMDNTPHTPTPF [MYBL2]", "protein stability index", 3.84),
    ("GEDSSTSSSTPLEDEEPQEPNRLE [RTN2]", "protein stability index", 5.57),
    ("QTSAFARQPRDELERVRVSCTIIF [TMEM175]", "protein stability index", 2.62),
    ("EDWLSHALSRKKSQGLAREQHAGT [FBF1]", "protein stability index", 4.04),
    ("YNILKTCRGHTLERSVFSERTEES [CARM1]", "protein stability index", 2.56),
]

====

Listed here: items and their measured protein stability index.
Experiment: protein stability index of a GFP-peptide fusion (GPS, HEK-293T) (PSI 1-6); higher = more stable
Settings: treatment: MLN4924 1 uM, 8 h; c terminus: a fixed tail appended
measured.attribute: protein stability index

# seq, experimental.result
measured = [
    ("PFDGLLEERALLLGRMGKHEQALF [VPS39]", 2.67),
    ("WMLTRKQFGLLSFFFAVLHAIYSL [STEAP1]", 2.1),
    ("LPGNEEFQVVKDAVLDCLLDFLPK [TENT5D]", 2.4),
    ("TKGEKIMLAIITKMTLTQVSTWFA [IRX6]", 2.95),
    ("MSEIRFTNLTWDQVITLDQVLDEV [TENT5D]", 2.31),
    ("KLHYPELYVLKGGYKEFFMKCQSY [CDC25A]", 2.04),
    ("LLDCFGIPVLMALSWFILHARYRV [SLC35F2]", 3.64),
    ("GARARGVAMLGVFLVSAVAHEYIF [SOAT2]", 3.59),
    ("RSAMSGASQPRGPALLFPATRGVP [TRIB1]", 4.14),
    ("QRVPKVLVENAKNFPQCVLEISDQ [EFHC1]", 3.81),
    ("IEDFQQKILLTKSENARLVLQIDN [KRT36]", 2.8),
    ("LIKALKIFQEKHVNLLHIESRKSK [TPH1]", 2.22),
    ("PPNQQMSPSPMSHGHYSMHCLHSA [DLX1]", 3.13),
    ("RREAVQRGRMPPTQPTHGQFALTN [NR2F2]", 3.99),
    ("EVQHLREEKSKQFLDLMETIDKQR [LRRC45]", 4.49),
    ("ELSRIVLMRHGMEKIWRPNRVFSL [RAB40C]", 2.63),
    ("ARIVEIYSRRLQVQERLTKQIAVA [GCH1]", 2.37),
    ("QRYEHGRTLKSYLGLTNQSRRYNR [ZNF649]", 3.59),
    ("LNMAKKSVDIVSSHWDLNHTHPSA [PLD5]", 3.2),
    ("YSEHFLQEAKLLHWNGRHKPWDFP [GLT8D2]", 2.41),
    ("PPSRAPTAAPPPPPPSRPSVAVPP [WASL]", 4.86),
    ("ACRFQEDQEMARDLVERALYSMEC [TCF25]", 2.49),
    ("VRAWDLETGKLLWKVRYDTFIVSC [WDR88]", 2.11),
    ("AQYDSWPHYPEYFQQPAPEYHQPQ [LOXL2]", 3.8),
    ("LMAEGLLPAVKVFLDWLRTNPDLI [SMG5]", 2.6),
    ("RENILVSLGAVGEGFHNYHHSFPY [SCD]", 2.11),
    ("VENRVVEEAKGLLDKVKDGGYRPA [ZBED1]", 4.94),
]

====

Test: protein stability index of a GFP-peptide fusion (GPS, HEK-293T) (PSI 1-6); higher = more stable
Conditions: treatment: DMSO; c terminus: a fixed tail appended
// protein stability index lookup, one value per entry
measured.attribute: protein stability index

# seq, experimental.result
rows = [
    ("EDEDKSEPEQTGADAAEDEEVDVT [RBBP5]", 5.66),
    ("SGLGSCLPGSYLSSECHTSGFVGS [KRT36]", 2.62),
    ("KKIYAMGGGSYGKLFESVECYDPR [GAN]", 2.94),
    ("NDFSYLHTNCFELSIYVGCDKYPH [CPXM2]", 2.5),
    ("LGSPYGQPPRFPVPHNGSSEATLP [PDLIM4]", 4.52),
    ("ACRFQEDQEMARDLVERALYSMEC [TCF25]", 2.34),
    ("SSGHQNRRFSSEDLEDPLGGLLSY [FBF1]", 3.6),
    ("PVGSCCSSPAGLSREYKLVMLGAG [RIT1]", 2.54),
    ("YVGEPLVCEVQVHGGSLLGKKYNW [GFOD1]", 2.61),
    ("RLEELTNRLASLQQENKVLKIELE [CCDC6]", 3.65),
    ("QDVTVVGSAGRLLAVGTDLYGQRN [GFOD1]", 3.4),
    ("HCAAVTPAGCMYIHGGVVNIHENK [KLHDC10]", 2.86),
    ("DRKARKPLVEKKRRARINESLQEL [HES6]", 4.37),
]

====

Test: protein stability index of a GFP-peptide fusion (GPS, HEK-293T) (PSI 1-6); higher = more stable
Details: treatment: MLN4924 1 uM, 8 h; c terminus: a fixed tail appended
Think of 3 as a floor: if protein stability index stands on it or above, it is T; beneath it, F.

# seq, answer.label
data = [
    ("INVGGIKYSLPWTTLDEFPLTRLG [KCNG1]", "F"),
    ("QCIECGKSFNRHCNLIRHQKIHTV [ZSCAN9]", "T"),
    ("LEALLEAAGIGKLSTADGKAFADP [ANKRD17]", "T"),
    ("SILLCLLASGLVVFFLFPHSVLVD [TMEM106C]", "F"),
    ("CLESTKLLADLKKCGDLECEALIN [MIA2]", "T"),
    ("DSSEEKHLEEPGETQNAFLNERKQ [CHGB]", "T"),
    ("ALYVQAPTVTIEGFLQALSLAVDK [TRIP13]", "F"),
]
